Cited source for all entries: ChEMBL document CHEMBL1137885

Test system: Huh-7
Test description: Cytotoxic concentration against Huh-7 liver cells in XTT cytotoxicity assay
Assay type: functional
Assay context: Homo sapiens
Assay readout: CC50 (µM)

Molecule	Target under test	Reading unit	Result modifier	Test result
CCCC(NC(=O)[C@@H]1C2CCCC2CN1C(=O)[C@@H](NC(=O)[C@@H](NC(=O)c1cnccn1)C1CCCCC1)C(C)(C)C)C(=O)C(=O)NC[C@@H](C)CC (stereo partly drawn)	Huh-7	µM	=	31.7
CCCC(NC(=O)[C@@H]1C2CCCC2CN1C(=O)[C@@H](NC(=O)[C@@H](NC(=O)c1cnccn1)C1CCCCC1)C(C)(C)C)C(=O)C(=O)N[C@H](C)CC (stereo partly drawn)	Huh-7	µM	=	69.2
CCCC(NC(=O)[C@@H]1[C@H]2CCC[C@H]2CN1C(=O)[C@@H](NC(=O)[C@@H](NC(=O)c1cnccn1)C(C)C)C(C)(C)C)C(=O)C(=O)NC1CC1 (stereo partly drawn)	Huh-7	µM	>	100
CCC[C@H](NC(=O)[C@@H]1C2CCCC2CN1C(=O)[C@@H](NC(=O)[C@@H](NC(=O)c1cnccn1)[C@@H](C)OC)C(C)(C)C)C(=O)C(=O)NC1CC1 (stereo partly drawn)	Huh-7	µM	>	100
CCC[C@H](NC(=O)[C@@H]1C2CCCC2CN1C(=O)[C@@H](NC(=O)[C@@H](NC(=O)c1cnccn1)C(C)(C)C)C(C)(C)C)C(=O)C(=O)NC1CC1 (stereo partly drawn)	Huh-7	µM	>	100
CCC[C@H](NC(=O)[C@@H]1C2CCCC2CN1C(=O)[C@@H](NC(=O)[C@@H](NC(=O)c1cnccn1)[C@@H](C)CC)C(C)(C)C)C(=O)C(=O)NC1CC1 (stereo partly drawn)	Huh-7	µM	>	100
CCCC(NC(=O)[C@@H]1[C@H]2CCC[C@H]2CN1C(=O)[C@@H](NC(=O)[C@@H](NC(=O)c1cnccn1)C1CCCCC1)C(C)(C)C)C(=O)C(=O)NC1CC1 (stereo partly drawn)	Huh-7	µM	=	86.5
CCCC(NC(=O)[C@@H]1C2CCCC2CN1C(=O)[C@@H](NC(=O)[C@@H](NC(=O)c1cnccn1)C1CCCCC1)C(C)(C)C)C(=O)C(=O)N[C@H](C)c1ccccc1 (stereo partly drawn)	Huh-7	µM	=	22

###

System: Huh-7
Test description: Cytotoxic concentration against Huh-7 liver cells in XTT cytotoxicity assay
Type: functional
Assay context: Homo sapiens

Molecule	Target under test	CC50
CC(C)(C)[C@H](NC(=O)[C@@H](NC(=O)c1cnccn1)C1CCCCC1)C(=O)N1CC2CCCC2[C@H]1C(=O)NC(CC(F)F)C(=O)C(=O)NC1CC1 (stereo partly drawn)	Huh-7	> 100 µM
CCC[C@H](NC(=O)[C@@H]1C2CCCC2CN1C(=O)[C@@H](NC(=O)[C@@H](NC(=O)c1cnccn1)c1ccccc1)C(C)(C)C)C(=O)C(=O)NC1CC1 (stereo partly drawn)	Huh-7	58.6 µM
CCCC(NC(=O)[C@@H]1C2CCCC2CN1C(=O)[C@@H](NC(=O)[C@H](CC1CCCCC1)NC(=O)c1cnccn1)C(C)(C)C)C(=O)C(=O)NC1CC1 (stereo partly drawn)	Huh-7	45.5 µM

###

Test description: Selectivity for HCV NS3 over human elastase
The reader will find reported selectivity ratio values listed item by item below.

Compound	selectivity ratio
CCCC(NC(=O)[C@@H]1C2CCCC2CN1C(=O)[C@@H](NC(=O)[C@@H](NC(=O)c1cnccn1)C1CCCCC1)C(C)(C)C)C(=O)C(=O)N[C@H](C)CC (some centres not stated)	81
CCCC(NC(=O)[C@@H]1C2CCCC2CN1C(=O)[C@@H](NC(=O)[C@@H](NC(=O)c1cnccn1)C1CCCCC1)C(C)(C)C)C(=O)C(=O)N[C@H](C)c1ccccc1 (some centres not stated)	29
CC(C)(C)[C@H](NC(=O)[C@@H](NC(=O)c1cnccn1)C1CCCCC1)C(=O)N1CC2CCCC2[C@H]1C(=O)NC(CC(F)F)C(=O)C(=O)NC1CC1 (some centres not stated)	392
CCC[C@H](NC(=O)[C@@H]1C2CCCC2CN1C(=O)[C@@H](NC(=O)[C@@H](NC(=O)c1cnccn1)[C@@H](C)CC)C(C)(C)C)C(=O)C(=O)NC1CC1 (some centres not stated)	36
CCC[C@H](NC(=O)[C@@H]1C2CCCC2CN1C(=O)[C@@H](NC(=O)[C@@H](NC(=O)c1cnccn1)[C@@H](C)OC)C(C)(C)C)C(=O)C(=O)NC1CC1 (some centres not stated)	126
CCC[C@H](NC(=O)[C@@H]1C2CCCC2CN1C(=O)[C@@H](NC(=O)[C@@H](NC(=O)c1cnccn1)C(C)(C)C)C(C)(C)C)C(=O)C(=O)NC1CC1 (some centres not stated)	102
CCCC(NC(=O)[C@@H]1[C@H]2CCC[C@H]2CN1C(=O)[C@@H](NC(=O)[C@@H](NC(=O)c1cnccn1)C1CCCCC1)C(C)(C)C)C(=O)C(=O)NC1CC1 (some centres not stated)	62
